Biological target: Pantothenate synthetase (Mycobacterium tuberculosis (strain ATCC 25618 / H37Rv))
Assay: Coupled enzyme confirmation of inhibitors against recombinant Mtb PanC (AID 375);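 note: 0% = full reaction with vehicle and 100% = no enzyme background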
Conditions: coupled enzyme assay; at 10 µM, active compounds read high
Listed below: inhibition values for each entry.
Report the figure in % without appending any unit label.

// worked examples, inhibition included
[
  {
    "compound": "CCOCCn1cnc2sc(C(=O)NCC(=O)OCC)c(C)c2c1=O",
    "measured_on": "Pantothenate synthetase (Mycobacterium tuberculosis (strain ATCC 25618 / H37Rv))",
    "inhibition [%]": 10
  },
  {
    "compound": "Cc1ccc(Cn2nnc3c(=O)n(CC(=O)NCC4CCCO4)cnc32)cc1 (centres undefined)",
    "measured_on": "Pantothenate synthetase (Mycobacterium tuberculosis (strain ATCC 25618 / H37Rv))",
    "inhibition [%]": 0
  },
  {
    "compound": "COCCNC(=O)CN1CCN(C(c2ccccc2)c2ccccc2)CC1",
    "measured_on": "Pantothenate synthetase (Mycobacterium tuberculosis (strain ATCC 25618 / H37Rv))",
    "inhibition [%]": 2
  },
  {
    "compound": "Cc1cc(C)n2nc(SCc3cc(=O)n4ccccc4n3)nc2n1",
    "measured_on": "Pantothenate synthetase (Mycobacterium tuberculosis (strain ATCC 25618 / H37Rv))",
    "inhibition [%]": 0
  },
  {
    "compound": "O=C(Cn1c(=O)oc2ccccc21)N1CCN(c2ccccc2)CC1",
    "measured_on": "Pantothenate synthetase (Mycobacterium tuberculosis (strain ATCC 25618 / H37Rv))",
    "inhibition [%]": 0
  },
  {
    "compound": "O=C(Nc1cccnc1)Nc1ccccn1",
    "measured_on": "Pantothenate synthetase (Mycobacterium tuberculosis (strain ATCC 25618 / H37Rv))",
    "inhibition [%]": 0
  },
  {
    "compound": "O=C(CCCC(=O)OCC(=O)NC1CCCC1)Nc1ccccn1",
    "measured_on": "Pantothenate synthetase (Mycobacterium tuberculosis (strain ATCC 25618 / H37Rv))",
    "inhibition [%]": 4
  },
  {
    "compound": "CC1(C)Cc2cccc(OCC(O)CN3CCN(c4ccccn4)CC3)c2O1 (centres undefined)",
    "measured_on": "Pantothenate synthetase (Mycobacterium tuberculosis (strain ATCC 25618 / H37Rv))",
    "inhibition [%]": 0
  }
]

Inquiry: # inhibition lookup, item `O=C(CSc1nnc(-c2cccnc2)o1)OC1CCCCC1`
Reply text: 0

Inquiry: # inhibition lookup, item O=C(CN1C(=O)c2cccc3cccc1c23)NCC1CCCO1 (centres undefined)
Reply text: 5

Inquiry: # inhibition lookup, item COc1ccc(N2CCN(C(c3cccs3)C(C)NC(=O)c3ccco3)CC2)cc1 (centres undefined)
Reply text: 0

Inquiry: # inhibition lookup, item `O=C(CCn1c(=O)oc2ccccc21)NCCN1CCOCC1`
Reply text: 4

Inquiry: # inhibition lookup, item `CCOC(=O)N1CCC(NC(=O)c2ccc3c(c2)N(C)CCS3)CC1`
Reply text: 6
